details: buffer; pH 7.4; 200.0 µM
value type: solubility kinetic (µg/mL)
Answers are plain numbers, in µg/mL.

See these solved cases before continuing.
Q: Consider the compound shown here: O=c1[nH]c2ccc(NCc3ccc(F)cc3)cc2[nH]1 What is its recorded solubility kinetic?
A: 35.9

Q: Consider the compound shown here: COc1ccccc1OCCNC(=O)c1ccc2c(c1)CCC2 What is its recorded solubility kinetic?
A: 42.2

Q: Consider the compound shown here: Cc1csc2c(N3CCC(C(=O)O)CC3)ncnc12 What is its recorded solubility kinetic?
A: 36.9

Q: Consider the compound shown here: CCCCCC(O)(CCN1CCCCC1)c1ccc(OCC)cc1.Cl (centres undefined) What is its recorded solubility kinetic?
A: 53.5

Q: Consider the compound shown here: CC(=O)c1c(C)[nH]c(C(=O)COC(=O)C2(C)CC2(Cl)Cl)c1C (centres undefined) What is its recorded solubility kinetic?
A: 11.9

Each compound below has a recorded value; state its solubility kinetic.
1. COc1nccc(C(F)(F)F)c1C(=O)NC(=O)Nc1ccccc1
2. O=C(NCc1ccc(F)cc1)Nc1cccc([N+](=O)[O-])c1
3. COc1ccc(C2NC(=O)NC3=C2CCc2ccccc23)cc1 (centres undefined)

A:
11.5
1
18.1

* * *

settings: buffer; pH 7.4; 200.0 µM
value type: solubility kinetic

Q: Consider the compound shown here: COc1ccc(NC(=O)CNc2ccc(C#N)cc2)cc1 What is its recorded solubility kinetic?
A: > 42.2 µg/mL

Q: Consider the compound shown here: CCc1ccccc1N1C(=O)C2C3C=CC(CC3)C2C1=O (configuration not stated) What is its recorded solubility kinetic?
A: > 42.2 µg/mL

Q: Consider the compound shown here: O=C1CCCN1CCCNS(=O)(=O)c1cccs1 What is its recorded solubility kinetic?
A: > 43.3 µg/mL

Q: Consider the compound shown here: CN(Cc1ccccc1Cl)C(=O)c1cnccc1C(F)(F)F What is its recorded solubility kinetic?
A: > 49.3 µg/mL

Q: Consider the compound shown here: COc1ccc(NC(=O)C2CCCN(c3cnccn3)C2)cc1 (configuration not stated) What is its recorded solubility kinetic?
A: > 46.9 µg/mL

Q: Consider the compound shown here: CCOP(=O)(OCC)/C(C#N)=C(\O)c1ccc(OC)cc1 What is its recorded solubility kinetic?
A: > 46.7 µg/mL

Q: Consider the compound shown here: O=C(COC(=O)c1c(Cl)cccc1Cl)NC1CCCCC1 What is its recorded solubility kinetic?
A: > 49.5 µg/mL

Q: Consider the compound shown here: Cn1ncc([N+](=O)[O-])c1C(=O)Nc1ccccc1Cl What is its recorded solubility kinetic?
A: > 42.1 µg/mL

Each compound below has a recorded value; state its solubility kinetic.
1. Cc1ccccc1CC(=O)NC1CCCc2ccccc21 (configuration not stated)
2. c1ccc2nc3c(cc2c1)CCCCC3
3. COc1cccc(C(=O)CC(=O)C(=O)Nc2ccc(C)cc2Cl)c1
4. COc1ccc(OCC(=O)N(C)CC2COc3ccccc3O2)cc1 (configuration not stated)
5. c1ccc2c(c1)nc(N1CCOCC1)c1ccccc12
6. O=C(Nc1cccc(Br)c1)c1cc(=O)c2ccccc2o1
7. Cc1cc(Cl)ccc1NC(=O)/C=N/O
8. Cc1cc(N2CC(C(=O)Nc3nccs3)CC2=O)ccc1C(C)C (configuration not stated)

A:
1. 2.7 µg/mL
2. 3.4 µg/mL
3. 8.1 µg/mL
4. > 51.5 µg/mL
5. 14.9 µg/mL
6. < 0.7 µg/mL
7. > 31.9 µg/mL
8. 1.4 µg/mL

Each compound below has a recorded value; state its solubility kinetic.
1. Cc1cc(NC(=O)COc2ccc([N+](=O)[O-])cc2)no1
2. CC(NC(=O)COC(=O)c1cc(=O)c2ccccc2o1)c1ccccc1 (configuration not stated)
3. COC(c1ccccc1)(c1ccccc1)C(Oc1nc(C)cc(C)n1)C(=O)O (configuration not stated)
4. CC(NC(=O)NC(=O)c1cccc(Cl)c1)c1ccccc1 (configuration not stated)
5. O=S(=O)(c1ccccc1)N(CC1CO1)c1ccccc1 (configuration not stated)

A:
5.8 µg/mL
> 52.7 µg/mL
> 56.8 µg/mL
0.9 µg/mL
> 43.4 µg/mL

Each compound below has a recorded value; state its solubility kinetic.
1. O=C(Nc1cscc1S(=O)(=O)c1ccccc1)c1ccccc1Cl
2. O=C(NCc1ccccc1)C1CC(=O)N(C2CCCCCC2)C1 (configuration not stated)

A:
["10.3 µg/mL", "> 47.2 µg/mL"]
